Data credit: PubChem BioAssay AID1159580

assay: chemical genetic growth profiling, strain panel (AID 1159580);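 note: tested at 20 µM; growth read once vehicle control cultures reached saturation at 30 °C; 1 = growth at the plate median or of vehicle wells; lower values mean less growth of the strain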; settings: S. cerevisiae deletion strains, growth OD, locus YNL067W, strain RPL9B, active compounds read low
Hit rate of the full screen: of about 5,500 compounds, about 2,000 (36%) were called active. About 18% were inconclusive and are not listed. This is one part of the list.
Property name: normalized growth
One number for each entry.

# example entries with known answers
O=c1oc2ccccc2c(O)c1Cc1c(O)c2ccccc2oc1=O    0.987
CC(=O)CC(c1ccccc1)c1c(O)c2ccccc2oc1=O (stereo not drawn)    1.01
Nc1ccc(C(=O)O)c(O)c1    1.01
O=C1CC[C@]23C=CC(=O)NCCCCNCCCNC(=O)/C=C/c4ccc(c2c4)O[C@@H]3C1    0.976
NS(=O)(=O)c1cc2c(cc1C(F)(F)F)NCNS2(=O)=O    1.02
C[N+]1(CCCCC[N+]2(C)CCCC2)CCCC1    1.02

# return normalized growth for each item in the list
1. Cc1coc2ccccc2c1=O
2. ClC(Cl)=C(c1ccc(Cl)cc1)c1ccc(Cl)cc1
3. CCn1cc(C(=O)O)c(=O)c2cc(F)c(N3CCNCC3)cc21
4. COc1ccc(-c2cc(=O)c3cc(OC)ccc3o2)cc1
5. CC[N+]1(C)CCCC(OC(=O)C(O)(c2ccccc2)c2ccccc2)C1 (stereo not drawn)

1. 0.992
2. 0.974
3. 1.01
4. 0.99
5. 1.01

# return normalized growth for each item in the list
1. CC1=NCCc2c1[nH]c1cc(O)ccc21
2. NCC(=O)CCC(=O)O

1: 1.02; 2: 0.997

* * *

assay: chemical genetic growth profiling, strain panel (AID 1159580);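 note: tested at 20 µM; growth read once vehicle control cultures reached saturation at 30 °C; 1 = growth at the plate median or of vehicle wells; lower values mean less growth of the strain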; settings: S. cerevisiae deletion strains, growth OD, locus YLR370C, strain arc18, active compounds read low
The campaign covered roughly 5,500 compounds. About 2,000 (36%) were called active. Inconclusive results (about 18%) are left out. The list shows a part of the results.
Property name: normalized growth
Answers are plain numbers.

CC(=O)Oc1c(-c2ccccc2)oc2c(CC=C(C)C)c3c(c(OC(C)=O)c2c1=O)C=CC(C)(C)O3    1.01
CC1=NCCc2c1[nH]c1cc(O)ccc21    0.973
Cc1cc2cc3c(C)cc(=O)oc3c(C)c2o1    0.986
COc1c2c(cc3c1OCO3)CC[N+](C)=C2    1

# return normalized growth for each item in the list
1. CC1(C)O[C@@H]2CC3C4C[C@H](F)C5=CC(=O)C=C[C@]5(C)[C@@]4(F)[C@@H](O)C[C@]3(C)[C@]2(C(=O)CO)O1 (some centres not stated)
2. COc1cc2c(cc1OC)-c1cc3ccc(OC)c(OC)c3c[n+]1CC2
3. COCCOC(=O)C1=C(C)NC(C)=C(C(=O)OC(C)C)C1c1cccc([N+](=O)[O-])c1 (configuration not stated)

[1.01, 0.975, 1]

* * *

assay: chemical genetic growth profiling, strain panel (AID 1159580);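 note: tested at 20 µM; growth read once vehicle control cultures reached saturation at 30 °C; 1 = growth at the plate median or of vehicle wells; lower values mean less growth of the strain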; conditions: S. cerevisiae deletion strains, growth OD, locus YMR223W, strain ubp8, active compounds read low
About 2,000 (36%) of roughly 5,500 compounds were called active. Inconclusive results (about 18%) are left out. Some of the results follow.
Property name: normalized growth
Numbers only.

OC1C(O)C(O)C(O)C(O)C1O (stereo not drawn)    1.02
CC(=O)Nc1ccc(O)cc1    0.98

Which normalized growth is reported for this molecule? NC(=O)CC[C@@H](N)C(=O)O
1.02
